assay.remarks: Chemical stability 0.2M NH4OAc at pH 5.0 at 1 mg/ml at room temperature assessed as ratio of Asn-containing cyclic peptides after 48 hrs by HPLC method
Type: physicochemical
test.context: 0.2 M NH4OAc buffer, read-out: Stability
Where a SMILES comes first, the peptide text is derived from it. Bridges are numbered along the chain shown (N, C = ends).
Below, each entry is listed with its recorded remaining at 48 h, 1 mg/ml.
Numeric answer only, unit % assumed.

Use these answered entries as a reference point.
N=C(N)NCCC[C@@H]1NC(=O)CNC(=O)[C@H](CC(N)=O)NC(=O)CSCCC(C(N)=O)NC1=O (single isomer, unassigned); 96
N=C(N)NCCC[C@@H]1NC(=O)CNC(=O)[C@H](CC(N)=O)NC(=O)[C@@H]2CCCN2C(=O)CSC[C@@H](C(N)=O)NC1=O ({CH2CO}-PNGRC-NH2; thioether N-5); 98
N=C(N)NCCC[C@@H]1NC(=O)CNC(=O)[C@H](CC(N)=O)NC(=O)CCSC[C@@H](C(N)=O)NC1=O; 99
N=C(N)NCCC[C@@H]1NC(=O)CNC(=O)[C@H](CC(N)=O)NC(=O)[C@H](CCCCN)NC(=O)CSC[C@@H](C(N)=O)NC1=O ({CH2CO}-KNGRC-NH2; thioether N-5); 90

Now turn to the next compound.
Complete the entry with remaining at 48 h, 1 mg/ml for N=C(N)NCCC[C@@H]1NC(=O)CNC(=O)[C@H](CC(N)=O)NC(=O)[C@H](CCCCN)NC(=O)CC[C@@H](C(N)=O)NC1=O (KNGRE-NH2; lactam N-5)
100
